Test system: CD4+ T cells from PBMC
Test: IFN-γ ELISpot, PBMC-derived in vitro expanded CD4+ T cell lines
Assay type: cell-based, human
Conditions: DR3/DQ Set Peptides; PBMC T cell lines; responding donors/donors tested
Value Type: T1D Donor T cell response

Lookup: Recorded T1D Donor T cell response of TPGNALVVDPKKPFRK [compound 13] , please.
Found: 3/4

Lookup: Name the recorded T1D Donor T cell response for YYNLEKDVKQFRRKDS [peptide 3] .
Found: 0/4

Lookup: # lookup: T1D Donor T cell response of KQGYQLIEGNQVLHS [compound 20]
Found: 0/4

Lookup: Name the reported T1D Donor T cell response value associated with the sequence GVSDQSFQVEEAKRIKQ [compound 25]
Found: 0/4

Lookup: // T1D Donor T cell response lookup, key: ITSIVKDSSAARNGL [peptide 18]
Found: 2/4

Lookup: For the sequence shown here, YYYIQQDTKGDYQK [peptide 7] , give the reported T1D Donor T cell response.
Found: 0/4

Lookup: Name the reported T1D Donor T cell response value associated with the sequence VPIDIDKTKVQNIHPVESA [compound 4]
Found: 0/4

Lookup: Given the sequence WRPSLVPASAENVNKA [compound 23] , what is its reported T1D Donor T cell response?
Found: 2/4

Lookup: Look up T1D Donor T cell response for this sequence: IDQINTDLNLERSHA [compound 17]
Found: 0/4

Lookup: Value lookup for T1D Donor T cell response; key = KRPAIWIDTGIHSRE [peptide 10]
Found: 4/4

====

Tested on: CD4+ T cells from PBMC
Assay: IFN-γ ELISpot, PBMC-derived in vitro expanded CD4+ T cell lines
Format: cell-based, human
Conditions: DR3/DQ Set Peptides; PBMC T cell lines; responding donors/donors tested
Value Type: T1D Donor T cell response

Lookup: Endpoint output: T1D Donor T cell response of GREEITYDTPFKREKS [compound 16] . Value?
Found: 3/4

Lookup: Which T1D Donor T cell response reading was recorded for the sequence APGYLAITKKVAVPY [compound 30] ?
Found: 3/4

Lookup: I have this sequence here, FQYIIDNKGIDSDAS [compound 31] , and I need its recorded T1D Donor T cell response.
Found: 1/4

Lookup: Give the measured T1D Donor T cell response of AELEDDFKEGYLE [peptide 2] .
Found: 2/4

Lookup: Sample QDPELPDKNMFTINRNTGVIS [compound 29] — what was its T1D Donor T cell response?
Found: 2/4

Lookup: Recorded T1D Donor T cell response for LEKDIISDTSGDFRK [compound 8] , please?
Found: 0/4

Lookup: I am curious: what T1D Donor T cell response value has been reported for LNKSINPDEAVAYGAA [peptide 15] ?
Found: 1/4
